Target: T1, Human full length B7-H3 (human, UniProt Q5ZPR3 29-534)
T1 sequence: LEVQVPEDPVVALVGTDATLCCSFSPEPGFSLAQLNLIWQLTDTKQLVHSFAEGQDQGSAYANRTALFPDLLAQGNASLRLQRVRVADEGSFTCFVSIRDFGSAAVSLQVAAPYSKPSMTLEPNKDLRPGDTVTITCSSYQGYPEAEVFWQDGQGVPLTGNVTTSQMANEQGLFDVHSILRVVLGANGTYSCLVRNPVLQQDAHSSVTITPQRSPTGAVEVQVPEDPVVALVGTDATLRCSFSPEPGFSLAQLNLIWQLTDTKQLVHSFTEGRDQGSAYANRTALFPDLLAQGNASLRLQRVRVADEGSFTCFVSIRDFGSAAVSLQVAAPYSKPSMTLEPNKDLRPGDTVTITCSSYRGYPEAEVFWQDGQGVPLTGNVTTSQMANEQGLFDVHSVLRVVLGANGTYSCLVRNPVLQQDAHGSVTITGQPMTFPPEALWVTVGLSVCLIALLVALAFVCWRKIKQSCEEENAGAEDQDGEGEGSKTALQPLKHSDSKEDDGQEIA
Assay: cell-based or functional assay
experimental_readout: EC50 nM H1650 (in vitro tumor cell cytotoxicity) (nM)
Answer with a number only, understood to be in nM.

For huAb13v1-AAA (antibody, human IgG1, kappa, L234A L235A, V domains shown, synthon AAA on interchain Cys) VH: EVQLQESGPGLVKPSETLSLTCAVTGYSITSGYSWHWIRQFPGNGLEWMGYIHSSGSTNYNPSLKSRISISRDTSKNQFFLKLSSVTAADTAVYYCAGYDDYFEYWGQGTTVTVSS VL: DIQMTQSPSSLSASVGDRVTITCKASQNVGFNVAWYQQKPGKSPKALIYSASYRYSGVPSRFSGSGSGTDFTLTISSLQPEDFAEYFCQQYNWYPFTFGQGTKLEIKR , what is its reported EC50 nM H1650 (in vitro tumor cell cytotoxicity)?
0.37
